molecular target: Kappa Opioid receptor (Homo sapiens, UniProt P41145)
Sequence (P41145 whole entry): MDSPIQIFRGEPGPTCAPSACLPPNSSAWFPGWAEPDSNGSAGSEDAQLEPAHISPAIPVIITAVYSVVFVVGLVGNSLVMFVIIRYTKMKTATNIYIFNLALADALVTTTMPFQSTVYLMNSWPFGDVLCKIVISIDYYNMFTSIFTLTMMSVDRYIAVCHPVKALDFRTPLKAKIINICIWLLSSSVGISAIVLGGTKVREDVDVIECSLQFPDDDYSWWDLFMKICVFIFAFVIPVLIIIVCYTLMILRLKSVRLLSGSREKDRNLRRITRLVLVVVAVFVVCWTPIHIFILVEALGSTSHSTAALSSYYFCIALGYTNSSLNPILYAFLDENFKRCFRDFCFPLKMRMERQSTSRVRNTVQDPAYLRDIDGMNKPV

>  <CHEM_SMILES>
Cc1ccc(-c2cc(C(F)(F)F)nn2-c2ccc(S(N)(=O)=O)cc2)cc1

>  <ASSAYED_SYSTEM>
Kappa Opioid receptor (Homo sapiens, UniProt P41145)

>  <Ki>
> 10 µM

$$$$

* * *

target: Benzodiazepine receptors; assay: NIMH-PDSP binding assay; details: read-out: Affinity
MEASURED_QUANTITY: Ki

>  <COMPOUND>
Cc1ccc(-c2cc(C(F)(F)F)nn2-c2ccc(S(N)(=O)=O)cc2)cc1 [celecoxib]

>  <RESULT>
> 10 µM

$$$$

* * *

target: mGluR receptors; assay: NIMH-PDSP binding assay; settings: read-out: Affinity

>  <CHEM_SMILES>
Cc1ccc(-c2cc(C(F)(F)F)nn2-c2ccc(S(N)(=O)=O)cc2)cc1

>  <Ki>
> 10 µM

$$$$

* * *

target: Sigma 1, 2 receptors; test: NIMH-PDSP binding assay; details: read-out: Affinity
MEASURED_QUANTITY: Ki

>  <CHEM_SMILES>
Cc1ccc(-c2cc(C(F)(F)F)nn2-c2ccc(S(N)(=O)=O)cc2)cc1

>  <ASSAYED_SYSTEM>
Sigma 1, 2 receptors

>  <RESULT>
> 10 µM

$$$$

* * *

molecular target: Neurokinin receptors; assay: NIMH-PDSP binding assay; conditions: read-out: Affinity
pKi: −log10 of the molar value.

>  <COMPOUND>
Cc1ccc(-c2cc(C(F)(F)F)nn2-c2ccc(S(N)(=O)=O)cc2)cc1 [celecoxib]

>  <pKi>
< 5.00

$$$$

* * *

biological target: Oxytocin receptors (Homo sapiens)
Sequence (P30559 whole entry): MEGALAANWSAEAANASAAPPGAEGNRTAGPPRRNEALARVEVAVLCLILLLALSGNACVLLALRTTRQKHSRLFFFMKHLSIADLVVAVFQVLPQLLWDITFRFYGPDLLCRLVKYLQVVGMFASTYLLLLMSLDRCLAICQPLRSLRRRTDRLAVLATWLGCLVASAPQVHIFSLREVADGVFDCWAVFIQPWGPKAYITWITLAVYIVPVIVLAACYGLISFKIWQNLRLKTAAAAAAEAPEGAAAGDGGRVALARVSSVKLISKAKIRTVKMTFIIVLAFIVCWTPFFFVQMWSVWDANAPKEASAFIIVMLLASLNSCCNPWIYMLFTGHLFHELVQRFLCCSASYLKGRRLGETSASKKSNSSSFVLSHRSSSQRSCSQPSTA
pKi: −log10 of the molar value.
MEASURED_QUANTITY: pKi

>  <CHEM_SMILES>
Cc1ccc(-c2cc(C(F)(F)F)nn2-c2ccc(S(N)(=O)=O)cc2)cc1

>  <RESULT>
< 5.00

$$$$

* * *

molecular target: Calcium channel receptor; assay: NIMH-PDSP binding assay; conditions: read-out: Affinity
pKi: −log10 of the molar value.
MEASURED_QUANTITY: pKi

>  <CHEM_SMILES>
Cc1ccc(-c2cc(C(F)(F)F)nn2-c2ccc(S(N)(=O)=O)cc2)cc1

>  <MEASURED_QUANTITY>
pKi

>  <RESULT>
< 5.00

$$$$

* * *

biological target: Dopamine 1-5 receptors; experiment: NIMH-PDSP binding assay; conditions: read-out: Affinity

>  <COMPOUND>
Cc1ccc(-c2cc(C(F)(F)F)nn2-c2ccc(S(N)(=O)=O)cc2)cc1 [celecoxib]

>  <Ki>
> 10 µM

$$$$

* * *

target: Prostanoid receptors; assay: NIMH-PDSP binding assay; settings: read-out: Affinity
MEASURED_QUANTITY: Ki

>  <COMPOUND>
Cc1ccc(-c2cc(C(F)(F)F)nn2-c2ccc(S(N)(=O)=O)cc2)cc1 [celecoxib]

>  <ASSAYED_SYSTEM>
Prostanoid receptors

>  <MEASURED_QUANTITY>
Ki

>  <RESULT>
> 10 µM

$$$$

* * *

target: Adenosine receptors; assay: NIMH-PDSP binding assay; details: read-out: Affinity
pKi: −log10 of the molar value.

>  <CHEM_SMILES>
Cc1ccc(-c2cc(C(F)(F)F)nn2-c2ccc(S(N)(=O)=O)cc2)cc1

>  <pKi>
< 5.00

$$$$

Sourced from paper PMC6222548
